These data points were gathered from PubChem BioAssay (NCI).

Experiment: NCI Yeast Anticancer Drug Screen. Data for the rad18 strain (AID 177)
Conditions: S. cerevisiae rad18 mutant growth inhibition; at 100.0 µM
This is part of a sample that, as a whole, favours compounds with a hit. Of some 79,000 tested, about 15% had one in any assay. Activity calls are given as the source filed them. Cut-off read from the data, not from the text of the source: active = growth inhibition above about 70%; inactive = the rest.
Write down the outcome that applies. Available outcomes: active, inactive

Please review the entries below; each comes with its answer.
- COMPOUND: "O=C(CC(=O)n1nc(-c2ccccc2)c(N=Nc2ccc(Cl)cc2)c1-c1ccccc1)Nc1cccc(Cl)c1"
  ANSWER_LABEL: "inactive"
- COMPOUND: "COC(=O)C1=C(C(=O)OC)C(C(=O)OC)C(C(=O)OC)C(C(=O)OC)(C(=O)OC)C(C(=O)OC)=C1C(=O)OC (stereo not given)"
  ANSWER_LABEL: "inactive"
- COMPOUND: "CC(C)CCCC(C)C1CCC2C3CCC4=CC(=O)/C(=C\\O)CC4(C)C3CCC12C (stereo not given)"
  ANSWER_LABEL: "inactive"
- COMPOUND: "CCO/C(C)=C(/C#N)C(N)=S"
  ANSWER_LABEL: "inactive"

What call does the record list for CN(C)CCOC1(Cc2ccc(F)cc2)CCC(C(C)(C)C)CC1 (stereo not given) ?
active

c1ccc2cc(NCNc3ccc4ccccc4c3)ccc2c1 , same question.
inactive

Try this compound too: CCOC1(c2cccc([N+](=O)[O-])c2)c2ccccc2Oc2ccccc21
inactive

Field entry: CC(=O)OCC(C)Cc1cc2c(cc1Br)OCO2 (stereo not given)
inactive

Let us now turn to O=C1C=C(N2CCN(c3ccccn3)CC2)C(=O)c2c(O)ccc(O)c21
inactive

And for O=C1OC(OC/C(Br)=C(\Br)COC2OC(=O)C(Cl)=C2Cl)C(Cl)=C1Cl (stereo not given) ?
inactive

----------
The entries below are paired with their reported growth inhibition.
Assay: NCI Yeast Anticancer Drug Screen. Data for the bub3 strain (AID 167)
Settings: S. cerevisiae bub3 mutant strain, at 5.0 µM (retest, dose inferred, filed as 0.5), active compounds read high
About 79,000 compounds went through this panel and 15% of them were active in at least one assay; those are over-represented in the sample as a whole.
State the answer as a number, implicitly in %.

The following compounds have reported results that may help.
- COMPOUND: "CCOC(=O)CC1(C(=O)OCC)c2[nH]c3ccccc3c2CCN1Cc1ccccc1 (stereo unspecified)"
  growth inhibition / %: 6
- COMPOUND: "CC1=C(C(=O)NCc2ccccc2)C(c2ccccc2)C(C(=O)NCc2ccccc2)=C(C)N1"
  growth inhibition / %: 6
- COMPOUND: "OC(CCNCc1ccccc1)c1ccc2ccccc2c1 (stereo unspecified)"
  growth inhibition / %: 37
- COMPOUND: "CN(C)/C=C/c1nnc([N+](=O)[O-])s1"
  growth inhibition / %: -65

What does the record list as growth inhibition for CC12C(=O)OC(=O)C(c3ccccc31)c1ccccc12 ?
28

Field entry: CC(=O)OCC1OC2OC(=O)NC2C(OC(C)=O)C1OC(C)=O (stereo unspecified)
3

----------
Test: NCI Yeast Anticancer Drug Screen. Data for the rad18 strain (AID 177)
Conditions: S. cerevisiae rad18 mutant growth inhibition; at 11.0 µM; active compounds read high
This is part of a sample that, as a whole, favours compounds with a hit. Of some 79,000 tested, about 15% had one in any assay.
Listed next: entries and their corresponding growth inhibition.
Field format: number, assumed %, no unit text.

Reference set, count: 4
- COMPOUND: "CNCCCNc1c2ccccc2nc2cccc([N+](=O)[O-])c12"
  UNIT_TEXT: "%"
  RESULT_NUMBER: 93
- COMPOUND: "Cc1cc(C(C)(C)CC(C)(C)C)ccc1O"
  UNIT_TEXT: "%"
  RESULT_NUMBER: 36
- COMPOUND: "Nc1cc(N)c(N=Nc2cccc3c(S(=O)(=O)O)cccc23)cc1N=Nc1cc([N+](=O)[O-])ccc1O"
  UNIT_TEXT: "%"
  RESULT_NUMBER: -23
- COMPOUND: "Nc1nc2ccc(NCc3ccc(C(=O)NC(CCC(=O)O)C(=O)O)cc3)cc2c(=O)[nH]1 (stereo unspecified)"
  UNIT_TEXT: "%"
  RESULT_NUMBER: -12

Which growth inhibition value belongs to CCc1c(Cl)c(C)cc(O)c1Cl ?
-23

Quick one: CCO/C(C)=C(/C#N)C(N)=S
7
